The measurements presented in this section are drawn from ChEMBL document CHEMBL3433997.

Quick list: inhibition per entry.
# Target desc: Hexose transporter 1 (Plasmodium falciparum)
# Measurement protocol: ST_JUDE_LEISH: Cytotoxicity at 2uM final concentration against transgenic Leishmania Mexicana promastigotes LmPfHT that are glucose transport deficient and complemented with the Plasmodium falciparum hexose transporter. Activity is measured by DNA content using SYBR green in vitro
# Format: functional
Answer in %, number only, no unit symbol.

Take a look at these entries with their results.
{"Compound": "COc1ccc(Nc2nccc(N3CCC(NS(=O)(=O)c4ccc(NC(C)=O)cc4)C3)n2)cc1 (centres undefined)", "Number": 2.85}
{"Compound": "CCc1cn2c3c(cc(C(=O)N[C@@H](Cc4ccccc4)[C@H](O)CNCc4ccc(C)cc4)cc13)N(C)S(=O)(=O)CC2", "Number": 1.57}
{"Compound": "Cc1[nH]cc(Br)c(=O)c1-c1ccc(Oc2ccccc2)cc1", "Number": 2.3}
{"Compound": "O=C(NCCCN1CCOCC1)c1cccc(Nc2nccc(Nc3ccc(Oc4ccccc4)cc3)n2)c1", "Number": -0.18}
{"Compound": "Cc1cn(CC(=O)Nc2cccc(-c3cccc(-c4nc5cccc(C)c5[nH]4)c3)c2)c(=O)[nH]c1=O", "Number": 3.47}

API: the following record is the query input.
Recorded inhibition (compound CCCNc1nc(Nc2ccccc2C)nc2ccccc12 ): 33.5

* * *

# Target desc: Solute carrier family 2, facilitated glucose transporter member 1 (Homo sapiens) (UniProt P11166)
# Sequence (P11166 whole entry): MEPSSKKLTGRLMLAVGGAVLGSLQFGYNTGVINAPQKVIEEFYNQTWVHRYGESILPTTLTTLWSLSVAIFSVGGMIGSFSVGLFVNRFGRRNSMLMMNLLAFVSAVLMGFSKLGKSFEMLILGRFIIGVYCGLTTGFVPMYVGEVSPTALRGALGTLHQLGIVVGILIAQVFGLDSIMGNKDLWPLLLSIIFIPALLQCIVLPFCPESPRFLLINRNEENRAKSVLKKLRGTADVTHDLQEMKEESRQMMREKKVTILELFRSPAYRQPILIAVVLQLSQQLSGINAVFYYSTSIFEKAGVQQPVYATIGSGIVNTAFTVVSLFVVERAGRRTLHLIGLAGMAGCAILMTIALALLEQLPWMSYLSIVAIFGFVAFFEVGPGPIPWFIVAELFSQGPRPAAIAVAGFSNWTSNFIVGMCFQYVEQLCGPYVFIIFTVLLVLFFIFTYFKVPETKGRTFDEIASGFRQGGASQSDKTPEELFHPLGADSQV
# Measurement protocol: ST_JUDE_LEISH: Cytotoxicity at 2uM final concentration against transgenic Leishmania Mexicana promastigotes LmGLUT1 that are glucose transport deficient and complemented with the human glucose transporter GLUT1. Activity is measured by DNA content using SYBR green in vitro
# Format: functional
Quick list: inhibition per entry.
Answer in %, number only, no unit symbol.

Take a look at these entries with their results.
{"Molecule": "CCC1(CC)NC(N)=NC(=N)N1OCc1ccc(Cl)c(Cl)c1", "inhibition (%)": 4.32}
{"Molecule": "Cc1cc(N2CCOCC2)nc2ccc(NC(=O)c3ccc(Cl)c([N+](=O)[O-])c3)cc12", "inhibition (%)": 5.45}
{"Molecule": "Cc1ccccc1C1CCN(C2CCC(NC(=O)c3cc4cc(C(C)C)ccc4[nH]3)CC2)CC1 (stereo not given)", "inhibition (%)": 1.91}
{"Molecule": "CCOC(=O)c1cc2c(CCN3C(=O)c4ccccc4C3=O)cn(C)c2cc1-c1ccncc1", "inhibition (%)": 93}
{"Molecule": "COc1cc(CC2c3cc(O)c(Cl)cc3CCN2C)c(OC)cc1C (stereo not given)", "inhibition (%)": 3.63}

Recorded inhibition (molecule CC(=O)Nc1cccc(Nc2c3ccccc3nc3ccccc23)c1 ): 1.69

Recorded inhibition (molecule CN(C)c1ccc(-c2ccc(C(=O)NC3CCN(Cc4ccc(F)cc4)CC3)s2)cc1 ): 5.83

* * *

# Target desc: Glucose transporter (Leishmania mexicana) (UniProt O61059)
# Measurement protocol: ST_JUDE_LEISH: Cytotoxicity at 2uM final concentration against transgenic Leishmania Mexicana promastigotes LmGT2 that are glucose transport deficient and complemented with the L. Mexicana glucose transporter 2. Activity is measured by DNA content using SYBR green in vitro
# Format: functional
Quick list: inhibition per entry.
Answer in %, number only, no unit symbol.

Take a look at these entries with their results.
{"Compound": "O=C(Nc1ccc(OC2CCN(Cc3ccco3)C2)c(Cl)c1)c1ccc2ncccc2c1 (stereo not given)", "Measurement kind": "inhibition", "Number": 0.71}
{"Compound": "CC(C)NCc1ccc(OCc2cccc(COc3ccc(CNC(C)C)cc3I)c2)c(I)c1", "Measurement kind": "inhibition", "Number": 113}
{"Compound": "Cc1nccn1CCNC(=O)CN1CCC2(CCC1=O)CC(=O)c1ccccc1O2 (stereo not given)", "Measurement kind": "inhibition", "Number": 7.28}
{"Compound": "O=C(NCCN1CCC(c2ccncc2)CC1)c1ccc(Nc2nccc(Nc3ccc(Oc4ccccc4)cc3)n2)cc1", "Measurement kind": "inhibition", "Number": -1.34}

Observed inhibition, Glucose transporter (Leishmania mexicana) (UniProt O61059), Cc1cccc2nc(-c3cccc(-c4cccc(CN5CCC(CO)CC5)c4)c3)[nH]c12 : 8.87

* * *

Quick list: inhibition per entry.
# Target desc: Hexose transporter 1 (Plasmodium falciparum) (UniProt O97467)
# Measurement protocol: ST_JUDE_LEISH: Cytotoxicity at 2uM final concentration against transgenic Leishmania Mexicana promastigotes LmPfHT that are glucose transport deficient and complemented with the Plasmodium falciparum hexose transporter. Activity is measured by DNA content using SYBR green in vitro
# Type: functional
Answer in %, number only, no unit symbol.

Take a look at these entries with their results.
{"Compound": "CC1CCCC(NC(=O)CCOc2ccccc2)C1 (stereo not given)", "inhibition, %": 6.34}
{"Compound": "Cc1nc(C)c(-c2ccc(Oc3cccc(OC(F)(F)F)c3)cc2)c(O)c1Cl", "inhibition, %": 2.75}
{"Compound": "Cc1ccc(CCOCCCCCNCC(O)c2cc(Cl)c(N)c(Cl)c2)cc1 (stereo not given)", "inhibition, %": -1.13}

Recorded inhibition (compound NC(=O)c1sc(-n2cnc3ccccc32)cc1OCc1ccccc1[N+](=O)[O-] ): 7.21

Recorded inhibition (compound Cc1nc2nc(N)nc(N)c2c(C)c1Cc1cccc(C(N)=O)c1 ): 1.95

Recorded inhibition (compound Cc1ccc(NC(=O)Nc2cccc(Cl)c2)cc1-c1ccc(C(=O)Nc2ccncc2)cc1 ): -1.56

Recorded inhibition (compound COc1ccc(CNCc2ccc(-c3ccc(-c4nc5cc(C(F)(F)F)ccc5[nH]4)cc3)cc2)cc1 ): 1.19

Recorded inhibition (compound CN(Cc1c(Cl)cnn1C)S(=O)(=O)c1ccc2ccccc2c1 ): 7.25

Recorded inhibition (compound O=C(CSc1ccccn1)Nc1c(F)cccc1F ): 3.5

Recorded inhibition (compound COc1cccc(NC(=O)Nc2ccc(Nc3nc(C)cc(N4CCCC4)n3)cc2)c1 ): 1.07

Recorded inhibition (compound CCCOc1ccc(NC(=O)c2cccs2)cc1Cl ): 8.57

Recorded inhibition (compound c1ccc(-c2ccc3c(Nc4ccc5[nH]ccc5c4)ccnc3c2)nc1 ): 0.56

Recorded inhibition (compound CN1CCC(NCc2ccc(S(=O)(=O)Nc3ccc(Oc4cccc(Cl)c4)cc3)cc2)CC1 ): 1.05

Recorded inhibition (compound COc1cccc(C(=O)N2CCN(Cc3cccc(NC(=O)c4cccs4)c3)CC2)c1 ): 2.18

Recorded inhibition (compound COc1ccc2nccc([C@@H](O)CN3CCC(NC(=O)C(=Cc4ccc(C#N)cc4)c4ccc(-c5ccccc5)cc4)CC3)c2c1 ): 0.19

Recorded inhibition (compound COc1cccc(CNC[C@@H](O)[C@H](Cc2ccccc2)NC(=O)c2cc(C3CCCC3)cc(N3CCCCS3(=O)=O)c2)c1 ): 1.78

* * *

# Target desc: Glucose transporter (Leishmania mexicana) (UniProt O61059)
# Measurement protocol: ST_JUDE_LEISH: Cytotoxicity at 2uM final concentration against transgenic Leishmania Mexicana promastigotes LmGT2 that are glucose transport deficient and complemented with the L. Mexicana glucose transporter 2. Activity is measured by DNA content using SYBR green in vitro
# Assay type: functional
Quick list: inhibition per entry.
Write your answer as a measured quantity: the number, then the unit.

Take a look at these entries with their results.
{"Compound": "COc1cccc2c(N/N=C/c3cccc([N+](=O)[O-])c3)ccnc12", "Result": "8.14%"}
{"Compound": "O=C(NCC1CCC1)c1cnc(Nc2cccc(Cl)c2)nc1N1CCC1", "Result": "12.4%"}
{"Compound": "Cc1cc(N[C@@H](CC(C)C)C(=O)NCc2cccs2)nc(NCCc2ccccc2)n1", "Result": "5.49%"}
{"Compound": "Cc1ccc(Nc2nc3cc(Nc4ccnc(Nc5ccc(CS(C)(=O)=O)cc5)n4)ccc3o2)cc1", "Result": "5.97%"}

API: the following record is the query input.
Recorded inhibition (compound CCCC(C)Nc1nc(C)cc(N[C@@H](CC(C)C)C(=O)NCCOc2ccccc2)n1 (some centres undefined) ): 16.7%

* * *

# Target desc: Hexose transporter 1 (Plasmodium falciparum) (UniProt O97467)
# Measurement protocol: ST_JUDE_LEISH: Cytotoxicity at 2uM final concentration against transgenic Leishmania Mexicana promastigotes LmPfHT that are glucose transport deficient and complemented with the Plasmodium falciparum hexose transporter. Activity is measured by DNA content using SYBR green in vitro
# Format: functional
Quick list: inhibition per entry.
Answer in %, number only, no unit symbol.

Recorded inhibition (molecule O=C(/C=C/c1ccc(Cl)c(Cl)c1)N1CCC(NCc2c[nH]c3ccccc23)CC1 ): 1.05

Recorded inhibition (molecule COc1ccc(-c2ccc(NC(=O)c3cccc(Cl)c3)cc2)cc1CN1CCN(C)CC1 ): 4.97

Recorded inhibition (molecule Cc1cccc2nc(-c3cccc(-c4cccc(NC(=O)c5cn(C)c(=O)n5C)c4)c3)[nH]c12 ): 1.44

Recorded inhibition (molecule c1ccc(CN2CCC(NCc3ccccc3-c3ccc(CNC4CCCC4)cc3)CC2)cc1 ): 3.06

Recorded inhibition (molecule Nc1nc(N)c2c(Cl)c(CNc3cccc(C(=O)O)c3)ccc2n1 ): 2.84
